Sequence of the target: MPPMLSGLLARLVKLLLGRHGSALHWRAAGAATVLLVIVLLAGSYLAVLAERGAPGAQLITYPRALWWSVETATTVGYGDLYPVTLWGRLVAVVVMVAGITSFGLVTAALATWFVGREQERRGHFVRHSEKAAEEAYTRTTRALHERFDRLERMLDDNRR
metric: Kd (nM)
// units = nM; emit number, no label

Sure, the documented Kd for CN(C)c1cccc2c(S(=O)(=O)NCCCCCCCCCCC(=O)O)cccc12 [Dauda] is 470
